Tested on: SiHa
assay.details: Cytotoxicity against human SiHa cells after 48 hrs by SRB assay
Format: functional
// reported log10 GI50 per item
A value of 2 here means GI50 of 100 in nM, since values are log10.

Below, each entry is followed by its recorded log10 GI50 result.
INSERT INTO assay_data (compound, reported_value) VALUES
  ('COc1cc2c(cc1OCc1ccc(C(=O)Nc3ccc(C)c(Nc4nccc(-c5cccnc5)n4)c3)cc1)N=C[C@@H]1CCCN1C2=O', 2.23),
  ('COc1cc2c(cc1OCCCCC(=O)Nc1ccc(C)c(Nc3nccc(-c4cccnc4)n3)c1)N=C[C@@H]1CCCN1C2=O', 3.34),
  ('COc1cc2c(cc1OCCCCC(=O)Nc1ccc(C)c(Nc3nccc(-c4cc(OC)c(OC)c(OC)c4)n3)c1)N=C[C@@H]1C[C@H](F)CN1C2=O', 3.26),
  ('COc1cc2c(cc1OCc1ccc(C(=O)Nc3ccc(C)c(Nc4nccc(-c5cccnc5)n4)c3)cc1)N=C[C@@H]1C[C@H](F)CN1C2=O', 2.08);

stdin: Given the entry COc1cccc2c1C(=O)c1c(O)c3c(c(O)c1C2=O)C[C@@](O)(C(=O)CO)C[C@@H]3O[C@H]1C[C@H](N)[C@H](O)[C@H](C)O1 [DOXORUBICIN] , report its measured log10 GI50.
stdout: 3.32

stdin: Given the entry `COc1cc2c(cc1OCCCCC(=O)Nc1ccc(C)c(Nc3nccc(-c4cc(OC)c(OC)c(OC)c4)n3)c1)N=C[C@@H]1CCCN1C2=O` , report its measured log10 GI50.
stdout: 3.26

stdin: Given the entry `COc1cc2c(cc1O)N=C[C@@H]1CCCN1C2=O` , report its measured log10 GI50.
stdout: 2.23

====

Tested on: A-375
assay.details: Cell cycle arrest in human A375 cells assessed as accumulation at S phase at 4 uM after 24 hrs by propidium iodide staining based FACS analysis (reference value: 12.04 to 15.67%)
Assay type: functional
reported.property: Activity

Below, each entry is followed by its recorded Activity result.
INSERT INTO measurements (given_smiles, reported_value) VALUES
  ('COc1cc2c(cc1OCCCCC(=O)Nc1ccc(C)c(Nc3nccc(-c4cccnc4)n3)c1)N=C[C@@H]1CCCN1C2=O', '13.98%'),
  ('COc1cc2c(cc1OCCCCC(=O)Nc1ccc(C)c(Nc3nccc(-c4cc(OC)c(OC)c(OC)c4)n3)c1)N=C[C@@H]1C[C@H](F)CN1C2=O', '17.19%');

stdin: Given the entry `COc1cc2c(cc1OCc1ccc(C(=O)Nc3ccc(C)c(Nc4nccc(-c5cccnc5)n4)c3)cc1)N=C[C@@H]1C[C@H](F)CN1C2=O` , report its measured Activity.
stdout: 0.2%

stdin: Given the entry `Cc1ccc(NC(=O)c2ccc(CBr)cc2)cc1Nc1nccc(-c2cccnc2)n1` , report its measured Activity.
stdout: 11%

stdin: Given the entry `COc1cc2c(cc1OCc1ccc(C(=O)Nc3ccc(C)c(Nc4nccc(-c5cccnc5)n4)c3)cc1)N=C[C@@H]1CCCN1C2=O` , report its measured Activity.
stdout: 13.55%

====

assay.details: Cytotoxicity against human Gurav cells after 48 hrs by SRB assay
Type: functional
// reported GI50 per item
The figure you give is taken to be in nM; do not add the unit.

Below, each entry is followed by its recorded GI50 result.
INSERT INTO measurements (molecule, reported_value) VALUES
  ('COc1cc2c(cc1O)N=C[C@@H]1CCCN1C2=O', 160),
  ('COc1cc2c(cc1OCCCCC(=O)Nc1ccc(C)c(Nc3nccc(-c4cc(OC)c(OC)c(OC)c4)n3)c1)N=C[C@@H]1CCCN1C2=O', 2000);

stdin: Given the entry `COc1cc2c(cc1OCCCCC(=O)Nc1ccc(C)c(Nc3nccc(-c4cc(OC)c(OC)c(OC)c4)n3)c1)N=C[C@@H]1C[C@H](F)CN1C2=O` , report its measured GI50.
stdout: 150

stdin: Given the entry `COc1cc2c(cc1OCc1ccc(C(=O)Nc3ccc(C)c(Nc4nccc(-c5cccnc5)n4)c3)cc1)N=C[C@@H]1C[C@H](F)CN1C2=O` , report its measured GI50.
stdout: 130

stdin: Given the entry COc1cccc2c1C(=O)c1c(O)c3c(c(O)c1C2=O)C[C@@](O)(C(=O)CO)C[C@@H]3O[C@H]1C[C@H](N)[C@H](O)[C@H](C)O1 [DOXORUBICIN] , report its measured GI50.
stdout: 120

====

Tested on: ZR-75-1
assay.details: Cytotoxicity against human ZR-75-1 cells after 48 hrs by SRB assay
Assay type: functional
setup.conditions: ZR-75-1, 48 h
reported.property: GI50

INSERT INTO results (given_smiles, reported_property, reported_value) VALUES
  ('COc1cc2c(cc1OCCCCC(=O)Nc1ccc(C)c(Nc3nccc(-c4cc(OC)c(OC)c(OC)c4)n3)c1)N=C[C@@H]1C[C@H](F)CN1C2=O', 'GI50', '2700 nM');

stdin: Given the entry `COc1cc2c(cc1OCc1ccc(C(=O)Nc3ccc(C)c(Nc4nccc(-c5cccnc5)n4)c3)cc1)N=C[C@@H]1CCCN1C2=O` , report its measured GI50.
stdout: 160 nM

stdin: Given the entry `COc1cc2c(cc1OCCCCC(=O)Nc1ccc(C)c(Nc3nccc(-c4cccnc4)n3)c1)N=C[C@@H]1CCCN1C2=O` , report its measured GI50.
stdout: 170 nM

stdin: Given the entry `COc1cc2c(cc1OCc1ccc(C(=O)Nc3ccc(C)c(Nc4nccc(-c5cccnc5)n4)c3)cc1)N=C[C@@H]1C[C@H](F)CN1C2=O` , report its measured GI50.
stdout: 150 nM

stdin: Given the entry `COc1cc2c(cc1OCCCCC(=O)Nc1ccc(C)c(Nc3nccc(-c4cc(OC)c(OC)c(OC)c4)n3)c1)N=C[C@@H]1CCCN1C2=O` , report its measured GI50.
stdout: 2600 nM

stdin: Given the entry `COc1cccc2c1C(=O)c1c(O)c3c(c(O)c1C2=O)C[C@@](O)(C(=O)CO)C[C@@H]3O[C@H]1C[C@H](N)[C@H](O)[C@H](C)O1` , report its measured GI50.
stdout: 130 nM

====

Tested on: A-375
assay.details: Cytotoxicity against human A375 cells assessed as cell viability at 4 uM after 24 hrs by real time cell analyzer
Type: functional
setup.conditions: A-375, 24 h, read-out: Activity
reported.property: viability at 4 µM (%)
The figure you give is taken to be in %; do not add the unit.

INSERT INTO assay_data (given_smiles, reported_property, unit_text, reported_value) VALUES
  ('COc1cc2c(cc1OCCCCC(=O)Nc1ccc(C)c(Nc3nccc(-c4cc(OC)c(OC)c(OC)c4)n3)c1)N=C[C@@H]1C[C@H](F)CN1C2=O', 'viability at 4 µM', '%', 64.9),
  ('COc1cc2c(cc1OCc1ccc(C(=O)Nc3ccc(C)c(Nc4nccc(-c5cccnc5)n4)c3)cc1)N=C[C@@H]1C[C@H](F)CN1C2=O', 'viability at 4 µM', '%', 33.7),
  ('COc1cc2c(cc1OCCCCC(=O)Nc1ccc(C)c(Nc3nccc(-c4cccnc4)n3)c1)N=C[C@@H]1CCCN1C2=O', 'viability at 4 µM', '%', 72);

As a next step, examine the compound that follows.
stdin: Given the entry `COc1cc2c(cc1OCc1ccc(C(=O)Nc3ccc(C)c(Nc4nccc(-c5cccnc5)n4)c3)cc1)N=C[C@@H]1CCCN1C2=O` , report its measured viability at 4 µM.
stdout: 48

====

Test system: Nucleic Acid
assay.details: Binding affinity to calf thymus DNA assessed as change in melting temperature at compound to DNA molar ratio of 1:5 at pH 7 after 18 hrs at 37 degC by thermal denaturation assay
Assay type: nucleic-acid assay
setup.conditions: Bos taurus
reported.property: ΔTm (°C)
The figure you give is taken to be in °C; do not add the unit.

stdin: Return ΔTm measured with Nucleic Acid given this compound: `COc1cc2c(cc1OCc1ccc(C(=O)Nc3ccc(C)c(Nc4nccc(-c5cccnc5)n4)c3)cc1)N=C[C@@H]1C[C@H](F)CN1C2=O`
stdout: 7.1

stdin: Return ΔTm measured with Nucleic Acid given this compound: `COc1cc2c(cc1OCCCCC(=O)Nc1ccc(C)c(Nc3nccc(-c4cc(OC)c(OC)c(OC)c4)n3)c1)N=C[C@@H]1CCCN1C2=O`
stdout: 1.4

stdin: Return ΔTm measured with Nucleic Acid given this compound: `COc1cc2c(cc1OCCCCC(=O)Nc1ccc(C)c(Nc3nccc(-c4cc(OC)c(OC)c(OC)c4)n3)c1)N=C[C@@H]1C[C@H](F)CN1C2=O`
stdout: 2.5

stdin: Return ΔTm measured with Nucleic Acid given this compound: `COc1cc2c(cc1O)N=C[C@@H]1CCCN1C2=O`
stdout: 0.7

stdin: Return ΔTm measured with Nucleic Acid given this compound: `COc1cc2c(cc1OCCCCC(=O)Nc1ccc(C)c(Nc3nccc(-c4cccnc4)n3)c1)N=C[C@@H]1CCCN1C2=O`
stdout: 2.1

stdin: Return ΔTm measured with Nucleic Acid given this compound: `COc1cc2c(cc1OCc1ccc(C(=O)Nc3ccc(C)c(Nc4nccc(-c5cccnc5)n4)c3)cc1)N=C[C@@H]1CCCN1C2=O`
stdout: 6.8
